- TARGET: enkephalinase A (Rattus norvegicus, UniProt P07861)
- Construct: membrane pellet solubilised in 1% Triton X-100, DEAE Sephacel fraction eluting at 120-200 ml
- Sequence (P07861 whole entry): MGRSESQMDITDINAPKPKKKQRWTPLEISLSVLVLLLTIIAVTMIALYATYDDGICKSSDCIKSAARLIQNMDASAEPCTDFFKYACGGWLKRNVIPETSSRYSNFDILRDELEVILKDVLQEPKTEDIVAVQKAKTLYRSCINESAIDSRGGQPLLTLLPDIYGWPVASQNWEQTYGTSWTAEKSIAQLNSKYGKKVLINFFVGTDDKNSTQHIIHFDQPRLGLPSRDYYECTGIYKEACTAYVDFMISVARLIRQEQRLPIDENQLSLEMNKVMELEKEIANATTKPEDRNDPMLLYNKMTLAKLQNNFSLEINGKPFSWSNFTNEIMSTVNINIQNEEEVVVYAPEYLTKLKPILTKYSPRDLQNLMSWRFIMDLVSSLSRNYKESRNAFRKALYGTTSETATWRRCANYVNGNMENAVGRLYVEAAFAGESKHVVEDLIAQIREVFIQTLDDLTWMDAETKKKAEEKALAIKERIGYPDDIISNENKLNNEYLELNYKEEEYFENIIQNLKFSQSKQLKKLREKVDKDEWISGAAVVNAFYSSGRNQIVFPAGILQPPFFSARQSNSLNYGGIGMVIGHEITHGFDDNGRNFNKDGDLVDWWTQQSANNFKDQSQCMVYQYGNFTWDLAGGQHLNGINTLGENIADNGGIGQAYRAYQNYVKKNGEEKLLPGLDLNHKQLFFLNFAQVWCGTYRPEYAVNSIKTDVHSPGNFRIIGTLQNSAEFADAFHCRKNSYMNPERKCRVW
- PROCEDURE_TEXT: Enkephalinase A inhibition, radiometric 3H-Met5-ENK degradation assay with TLC separation
- CONDITION_LABEL: rat brain membrane enzyme, 40 nM 3H-Met5-ENK, 90 min at 37° C.; N.A. = No activity at <10^5 nM
pIC50: −log10 of the molar value.
Quick rule for you: pIC50 at 8 or higher means Met, lower means Not met.

[[record]]
compound = "O=C(CCNC(=O)[C@H](Cc1ccccc1)N[C@@H](Cc1ccccc1)C(=O)O)OCCOc1ccccc1 [P]"
class_assignment = "Not met"

[[record]]
compound = "O=C(O)CCNC(=O)[C@H](Cc1ccccc1)N[C@@H](Cc1ccc(-c2ccccc2)cc1)C(=O)O [AC]"
class_assignment = "Met"

[[record]]
compound = "CC(C)(C)OC(=O)N[C@@H](CNC(=O)[C@H](Cc1ccccc1)N[C@@H](Cc1ccccc1)C(=O)O)C(=O)O [AL]"
class_assignment = "Met"


// provenance: patent US4610816A
